# key: entry, value: pIC50
Target: UniProt:P23975
Test: Inhibition of [3H]NA uptake at human recombinant NA transporter expressed in HEK293 cells
pIC50: −log10 of the molar value.

- Line Notation: "CCc1cc(Cl)ccc1Oc1cc(C)ncc1CNC"
  pIC50: 7.66
- Line Notation: "CNCc1cnccc1Oc1ccc(Cl)cc1Cl"
  pIC50: 6.80
- Line Notation: "CNCc1cnccc1Oc1ccc(Cl)cc1Br"
  pIC50: 7.07
- Line Notation: "Cc1cc(Oc2ccc(Cl)cc2C)c(CN(C)C)cn1"
  pIC50: 7.59
- Line Notation: "CN(C)Cc1cnccc1Oc1ccc(Cl)cc1Cl"
  pIC50: 7.60
- Line Notation: "CCc1cc(Cl)ccc1Oc1ccncc1CNC"
  pIC50: 7.07
- Line Notation: "CNCc1cnc(C)cc1Oc1ccc(Cl)cc1Br"
  pIC50: 7.42

----------
Experiment: Intrinsic clearance per 10^6 cells in human hepatocytes
Type: ADME, cell-based, Liver, Hepatocyte
Attribute Measured: hepatocyte CLint

- Line Notation: "Cc1cc(Oc2ccc(Cl)cc2C)c(CN(C)C)cn1"
  Observed Result: "< 5 µL/min/1e6 cells"
- Line Notation: "CNCc1cc(C(=O)N(C)C)ccc1Oc1ccc(Cl)cc1OC"
  Observed Result: "21 µL/min/1e6 cells"
- Line Notation: "COc1cc(Cl)ccc1Oc1cc(C)ncc1CN(C)C"
  Observed Result: "< 5 µL/min/1e6 cells"

----------
# key: entry, value: pIC50
Target: Sodium-dependent serotonin transporter (Homo sapiens, UniProt P31645)
Sequence (P31645 whole entry): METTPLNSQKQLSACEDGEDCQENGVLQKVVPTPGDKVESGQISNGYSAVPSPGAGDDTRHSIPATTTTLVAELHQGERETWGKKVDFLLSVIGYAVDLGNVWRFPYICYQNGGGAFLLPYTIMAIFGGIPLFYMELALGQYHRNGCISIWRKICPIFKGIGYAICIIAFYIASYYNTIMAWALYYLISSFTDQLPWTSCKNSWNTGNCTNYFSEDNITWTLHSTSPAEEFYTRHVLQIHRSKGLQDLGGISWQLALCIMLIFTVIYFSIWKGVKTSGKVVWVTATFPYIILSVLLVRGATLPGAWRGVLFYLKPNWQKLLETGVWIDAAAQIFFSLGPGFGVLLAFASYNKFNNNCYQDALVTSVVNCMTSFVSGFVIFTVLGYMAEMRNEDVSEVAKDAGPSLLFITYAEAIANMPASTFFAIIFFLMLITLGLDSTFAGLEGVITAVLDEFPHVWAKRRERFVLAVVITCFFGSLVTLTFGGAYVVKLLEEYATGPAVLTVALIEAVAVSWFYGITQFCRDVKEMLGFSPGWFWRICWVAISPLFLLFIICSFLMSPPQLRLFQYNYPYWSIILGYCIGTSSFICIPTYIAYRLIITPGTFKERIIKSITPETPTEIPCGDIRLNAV
Assay: Inhibition of [3H]5-HT uptake at human recombinant 5HT transporter expressed in HEK293 cells
pIC50: −log10 of the molar value.

- Line Notation: "Cc1cc(Cl)ccc1Oc1ccncc1CN(C)C"
  pIC50: 8.52
- Line Notation: "CCc1cc(Cl)ccc1Oc1ccncc1CNC"
  pIC50: 7.34
- Line Notation: "CCc1cc(Cl)ccc1Oc1cc(C)ncc1CN(C)C"
  pIC50: 7.72
- Line Notation: "CN(C)Cc1cnccc1Oc1ccc(Cl)cc1Cl"
  pIC50: 8.10
- Line Notation: "CNCc1cnc(C)cc1Oc1ccc(Cl)cc1OC"
  pIC50: 8.40
- Line Notation: "CCc1cc(Cl)ccc1Oc1cc(C)ncc1CNC"
  pIC50: 7.70
- Line Notation: "CNCc1cnc(C)cc1Oc1ccc(Cl)cc1C"
  pIC50: 8.22
- Line Notation: "CNCc1cnc(C)cc1Oc1ccc(C)cc1OC"
  pIC50: 7.74
- Line Notation: "CNCc1cnccc1Oc1ccc(Cl)cc1OC"
  pIC50: 7.85
- Line Notation: "COc1cc(Cl)ccc1Oc1ccncc1CN(C)C"
  pIC50: 8.22
- Line Notation: "CCc1cc(Cl)ccc1Oc1ccncc1CN(C)C"
  pIC50: 7.96
- Line Notation: "CNCc1cc(C(=O)N(C)C)ccc1Oc1ccc(Cl)cc1OC"
  pIC50: 8.15
- Line Notation: "CN(C)Cc1cnccc1Oc1ccc(Cl)cc1Br"
  pIC50: 8.40
- Line Notation: "CCOc1cc(Cl)ccc1Oc1ccncc1CNC"
  pIC50: 7.62
- Line Notation: "CNCc1cnccc1Oc1ccc(Cl)cc1Br"
  pIC50: 7.64
- Line Notation: "CNCc1cnccc1Oc1ccc(Cl)cc1C"
  pIC50: 7.85
- Line Notation: "CNCc1cnccc1Oc1ccc(Cl)cc1Cl"
  pIC50: 7.41
- Line Notation: "COc1cc(Cl)ccc1Oc1cc(C)ncc1CN(C)C"
  pIC50: 7.89
- Line Notation: "CNCc1cnc(C)cc1Oc1ccc(Cl)cc1Br"
  pIC50: 8.00
- Line Notation: "CNCc1cnc(C)cc1Oc1ccc(F)cc1C"
  pIC50: 6.64
- Line Notation: "Cc1cc(Oc2ccc(Cl)cc2C)c(CN(C)C)cn1"
  pIC50: 8.22

----------
# key: entry, value: log10(IC50)
Biological target: Sodium-dependent noradrenaline transporter (Homo sapiens, UniProt P23975)
Sequence (P23975 whole entry): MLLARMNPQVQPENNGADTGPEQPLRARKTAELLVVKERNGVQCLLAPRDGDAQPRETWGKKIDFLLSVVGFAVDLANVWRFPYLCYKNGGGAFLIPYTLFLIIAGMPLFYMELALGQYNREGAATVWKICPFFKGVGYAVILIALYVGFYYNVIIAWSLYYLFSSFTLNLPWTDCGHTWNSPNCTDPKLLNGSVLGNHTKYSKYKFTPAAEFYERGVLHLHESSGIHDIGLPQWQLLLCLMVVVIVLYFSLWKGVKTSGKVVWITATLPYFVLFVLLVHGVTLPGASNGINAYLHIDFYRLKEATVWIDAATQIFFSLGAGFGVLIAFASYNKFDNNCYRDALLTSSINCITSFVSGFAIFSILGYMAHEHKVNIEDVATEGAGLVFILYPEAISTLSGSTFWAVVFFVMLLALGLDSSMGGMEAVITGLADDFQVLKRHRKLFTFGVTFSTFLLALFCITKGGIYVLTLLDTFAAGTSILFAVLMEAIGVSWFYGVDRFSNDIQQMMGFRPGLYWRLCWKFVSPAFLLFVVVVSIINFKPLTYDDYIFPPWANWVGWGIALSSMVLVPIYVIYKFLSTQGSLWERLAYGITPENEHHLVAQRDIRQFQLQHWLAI
Assay: Inhibition of [3H]NA uptake at human recombinant NA transporter expressed in HEK293 cells
Attribute Measured: log10(IC50) (log10 of the value in nM)

- Line Notation: "COc1cc(Cl)ccc1Oc1ccncc1CN(C)C"
  Attribute Measured: "log10(IC50)"
  Observed Result: 1.67
- Line Notation: "CCc1cc(Cl)ccc1Oc1ccncc1CN(C)C"
  Attribute Measured: "log10(IC50)"
  Observed Result: 1.26
- Line Notation: "COc1cc(Cl)ccc1Oc1cc(C)ncc1CN(C)C"
  Attribute Measured: "log10(IC50)"
  Observed Result: 1.41
- Line Notation: "CCc1cc(Cl)ccc1Oc1cc(C)ncc1CN(C)C"
  Attribute Measured: "log10(IC50)"
  Observed Result: 1.48
- Line Notation: "CN(C)Cc1cnccc1Oc1ccc(Cl)cc1Br"
  Attribute Measured: "log10(IC50)"
  Observed Result: 1.41
- Line Notation: "CNCc1cnc(C)cc1Oc1ccc(C)cc1OC"
  Attribute Measured: "log10(IC50)"
  Observed Result: 2.41

----------
# key: entry, value: log10(IC50)
Target: Sodium-dependent noradrenaline transporter (Homo sapiens, UniProt P23975)
Assay: Inhibition of [3H]NA uptake at human recombinant NA transporter expressed in HEK293 cells
Attribute Measured: log10(IC50) (log10 of the value in µM)

- Line Notation: "CNCc1cnccc1Oc1ccc(Cl)cc1C"
  Subject Of Test: "Sodium-dependent noradrenaline transporter (Homo sapiens, UniProt P23975)"
  Observed Result: -0.61
- Line Notation: "CCOc1cc(Cl)ccc1Oc1ccncc1CNC"
  Subject Of Test: "Sodium-dependent noradrenaline transporter (Homo sapiens, UniProt P23975)"
  Observed Result: -0.40
- Line Notation: "CNCc1cnccc1Oc1ccc(Cl)cc1OC"
  Subject Of Test: "Sodium-dependent noradrenaline transporter (Homo sapiens, UniProt P23975)"
  Observed Result: -0.55
- Line Notation: "Cc1cc(Cl)ccc1Oc1ccncc1CN(C)C"
  Subject Of Test: "Sodium-dependent noradrenaline transporter (Homo sapiens, UniProt P23975)"
  Observed Result: -1.44
- Line Notation: "CNCc1cnc(C)cc1Oc1ccc(Cl)cc1OC"
  Subject Of Test: "Sodium-dependent noradrenaline transporter (Homo sapiens, UniProt P23975)"
  Observed Result: -1.08
- Line Notation: "CNCc1cnc(C)cc1Oc1ccc(Cl)cc1C"
  Subject Of Test: "Sodium-dependent noradrenaline transporter (Homo sapiens, UniProt P23975)"
  Observed Result: -1.29

----------
# key: entry, value: microsomal CLint
Experiment: Intrinsic clearance in human liver microsomes
Assay type: ADME, Microsome

- Line Notation: "COc1cc(Cl)ccc1Oc1cc(C)ncc1CN(C)C"
  microsomal CLint: "< 7 µL/min/mg"
- Line Notation: "Cc1cc(Oc2ccc(Cl)cc2C)c(CN(C)C)cn1"
  microsomal CLint: "< 7 µL/min/mg"

----------
Heads up, these compounds all have IC50 values measured for Cytochrome P450 2D6 (Homo sapiens, UniProt P10635).
Attribute Measured: IC50

- Line Notation: "Cc1cc(Oc2ccc(Cl)cc2C)c(CN(C)C)cn1"
  Observed Result: "> 10 µM"
- Line Notation: "COc1cc(Cl)ccc1Oc1cc(C)ncc1CN(C)C"
  Observed Result: "> 10 µM"

----------
Target: Sodium-dependent dopamine transporter (Homo sapiens)
Sequence (Q01959 whole entry): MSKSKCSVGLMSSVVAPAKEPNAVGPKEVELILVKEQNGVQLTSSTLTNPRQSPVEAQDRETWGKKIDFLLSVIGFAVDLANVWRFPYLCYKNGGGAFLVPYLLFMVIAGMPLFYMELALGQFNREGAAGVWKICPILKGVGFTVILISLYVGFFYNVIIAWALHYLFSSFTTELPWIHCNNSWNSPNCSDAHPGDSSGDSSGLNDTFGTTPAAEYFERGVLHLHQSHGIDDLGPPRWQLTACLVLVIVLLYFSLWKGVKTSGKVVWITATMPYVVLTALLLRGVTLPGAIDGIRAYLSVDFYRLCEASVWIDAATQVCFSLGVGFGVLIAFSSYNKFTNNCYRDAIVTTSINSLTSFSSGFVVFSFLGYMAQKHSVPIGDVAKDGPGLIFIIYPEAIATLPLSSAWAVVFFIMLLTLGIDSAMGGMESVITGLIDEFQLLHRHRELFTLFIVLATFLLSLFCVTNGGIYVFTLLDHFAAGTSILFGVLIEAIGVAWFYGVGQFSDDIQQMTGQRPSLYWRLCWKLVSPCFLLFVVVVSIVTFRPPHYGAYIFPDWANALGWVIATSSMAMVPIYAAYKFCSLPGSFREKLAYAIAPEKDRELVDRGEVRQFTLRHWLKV
Assay: Inhibition of [3H]DA uptake at human recombinant DAT expressed in HEK293 cells
# key: entry, value: IC50
Attribute Measured: IC50 (µM)

- Line Notation: "COc1cc(Cl)ccc1Oc1ccncc1CN(C)C"
  Subject Of Test: "Sodium-dependent dopamine transporter (Homo sapiens)"
  Attribute Measured: "IC50"
  Unit Text: "µM"
  Bound Sign: "="
  Observed Result: 10.2
- Line Notation: "CNCc1cc(C(=O)N(C)C)ccc1Oc1ccc(Cl)cc1OC"
  Subject Of Test: "Sodium-dependent dopamine transporter (Homo sapiens)"
  Attribute Measured: "IC50"
  Unit Text: "µM"
  Bound Sign: ">"
  Observed Result: 4
- Line Notation: "Cc1cc(Cl)ccc1Oc1ccncc1CN(C)C"
  Subject Of Test: "Sodium-dependent dopamine transporter (Homo sapiens)"
  Attribute Measured: "IC50"
  Unit Text: "µM"
  Bound Sign: "="
  Observed Result: 3.23
- Line Notation: "COc1cc(Cl)ccc1Oc1cc(C)ncc1CN(C)C"
  Subject Of Test: "Sodium-dependent dopamine transporter (Homo sapiens)"
  Attribute Measured: "IC50"
  Unit Text: "µM"
  Bound Sign: "="
  Observed Result: 5.04
- Line Notation: "CCc1cc(Cl)ccc1Oc1ccncc1CN(C)C"
  Subject Of Test: "Sodium-dependent dopamine transporter (Homo sapiens)"
  Attribute Measured: "IC50"
  Unit Text: "µM"
  Bound Sign: ">"
  Observed Result: 38
- Line Notation: "CN(C)Cc1cnccc1Oc1ccc(Cl)cc1Cl"
  Subject Of Test: "Sodium-dependent dopamine transporter (Homo sapiens)"
  Attribute Measured: "IC50"
  Unit Text: "µM"
  Bound Sign: "="
  Observed Result: 2.43
- Line Notation: "CN(C)Cc1cnccc1Oc1ccc(Cl)cc1Br"
  Subject Of Test: "Sodium-dependent dopamine transporter (Homo sapiens)"
  Attribute Measured: "IC50"
  Unit Text: "µM"
  Bound Sign: "="
  Observed Result: 1.97
- Line Notation: "Cc1cc(Oc2ccc(Cl)cc2C)c(CN(C)C)cn1"
  Subject Of Test: "Sodium-dependent dopamine transporter (Homo sapiens)"
  Attribute Measured: "IC50"
  Unit Text: "µM"
  Bound Sign: "="
  Observed Result: 1.68
- Line Notation: "CCc1cc(Cl)ccc1Oc1cc(C)ncc1CNC"
  Subject Of Test: "Sodium-dependent dopamine transporter (Homo sapiens)"
  Attribute Measured: "IC50"
  Unit Text: "µM"
  Bound Sign: "="
  Observed Result: 34.1
- Line Notation: "CCc1cc(Cl)ccc1Oc1cc(C)ncc1CN(C)C"
  Subject Of Test: "Sodium-dependent dopamine transporter (Homo sapiens)"
  Attribute Measured: "IC50"
  Unit Text: "µM"
  Bound Sign: ">"
  Observed Result: 34
